- Test system: P. falciparum 3D7
- assay procedure: microbe, parasite or virus in culture
- Format: cell-based, Plasmodium falciparum
- experimental context: 3D7
Where a SMILES comes first, the peptide text is derived from it. [ ]: non-standard residue; d: D form. The star is where a group is joined. NMeI = CC[C@H](C)[C@H](NC)C(=O)O; X1 = CN(/C=C\c1c[nH]c2ccccc12)*; NMeL = CN[C@@H](CC(C)C)C(=O)O; NMeV = CN[C@H](C(=O)O)C(C)C; NMeA = CN[C@@H](C)C(=O)O; For = O=C*
Field: IC50. Provide a value for each of the compounds that follow.
Numeric only. Scale: µM

Problem: State, in one line, measured IC50 of CC[C@H](C)[C@@H](C(=O)N(C)/C=C\c1c[nH]c2ccccc12)N(C)C(=O)[C@H](C(C)C)N(C)C(=O)[C@H](C(C)C)N(C)C(=O)[C@H](CC(C)C)N(C)C(=O)[C@@H]1CCCN1C(=O)[C@H](Cc1ccccc1)NC(=O)[C@H](Cc1ccccc1)NC(C)=O [Compound P2, friomaramide B] (Ac-FFP[NMeL][NMeV][NMeV][NMeI]-X1)
Result: 8.65

Problem: Annotate the compound CNC(=O)[C@H](C(C)C)N(C)C(=O)[C@H](C(C)C)N(C)C(=O)[C@H](C(C)C)N(C)C(=O)[C@H](C)N(C)C(=O)[C@H](C)N(C)C(=O)[C@H](CC(C)C)N(C)C(=O)[C@H](C(C)C)N(C)C(=O)[C@H](Cc1ccccc1)NC=O [Compound P5, shagamide C] (For-F[NMeV][NMeL][NMeA][NMeA][NMeV][NMeV][NMeV]-NHMe) with its measured IC50.
Result: 2.52

====

- Tested on: P. falciparum 3D7
- assay procedure: microbe, parasite or virus in culture
- Type: cell-based, Plasmodium falciparum
- experimental context: 3D7
measured property: pIC50
// returns pIC50 (minus log10 of molar concentration), number only

Problem: Supply reported pIC50 belonging to this compound: CC[C@H](C)[C@@H](C(N)=O)N(C)C(=O)[C@H](C(C)C)N(C)C(=O)[C@H](CC(C)C)N(C)C(=O)[C@H](Cc1ccccc1)N(C)C(=O)[C@H](Cc1ccccc1)NC=O [Compound P3, shagamide A]
Result: 5.68

====

I'd appreciate it if you could supply CC50 values for the items below.
- Tested on: HepG2
- assay procedure: MTT cytotoxicity, human liver HepG2 cells
- Assay type: cell-based
Give the number; µM is assumed, so skip it.

Problem: Give recorded CC50. Cc1cc2c(c3c1[C@H](CO[N+](=O)[O-])OC3=O)CC(C)(C)C2
Result: 331

Problem: Item Cc1cc2c(c3c1[C@@H](CO)OC3=O)CC(C)(C)C2 : provide CC50
Result: 288

====

- System: Leishmania donovani
- assay procedure: Leishmania donovani infected macrophage assay
- Assay type: cell-based
- Procedure: The Leishmania donovani infected macrophage assay and cytotoxicity screen were conducted as previously described.
measured property: pIC50
// pIC50 is dimensionless: -log10 of concentration (M)

Problem: Fill in pIC50 for record Cc1cc2c(c(C)c1CCO[N+](=O)[O-])CC(C)(C)C2=O [Compound C6, alcyopterosin C]
Result: 4.89

Problem: Report measured pIC50; entry is Cc1cc2c(c3c1[C@@H](CCl)OC3=O)CC(C)(C)[C@@H]2O [Compound C9, alcyopterosin L]
Result: 5.62

====

- Test system: P. falciparum 3D7
- assay procedure: microbe, parasite or virus in culture
- Format: cell-based, Plasmodium falciparum
- experimental context: 3D7
Where a SMILES comes first, the peptide text is derived from it. [ ]: non-standard residue; d: D form. The star is where a group is joined. ξ: configuration not given here. NMeI = CC[C@H](C)[C@H](NC)C(=O)O; NMeξIle = CC[C@H](C)C(NC)C(=O)O; NMeV = CN[C@H](C(=O)O)C(C)C; NMeA = CN[C@@H](C)C(=O)O; For = O=C*
measured property: IC50

Problem: Report value: IC50, system: P. falciparum 3D7, compound: CC[C@H](C)[C@@H](C(=O)N(C)[C@@H](C)C(=O)N(C)[C@H](C(N)=O)C(C)C)N(C)C(=O)[C@H]([C@@H](C)CC)N(C)C(=O)[C@H](C)N(C)C(=O)[C@H](C(C)C)N(C)C(=O)[C@H](C)N(C)C(=O)[C@@H](NC(C)=O)C(C)C [Compound P8, shagamide F] (Ac-V[NMeA][NMeV][NMeA][NMeI][NMeI][NMeA][NMeV]-NH2)
Result: > 10 µM

Problem: Under P. falciparum 3D7: report IC50 of CC[C@H](C)C(C(=O)N(C)[C@H](C(=O)NC)[C@@H](C)CC)N(C)C(=O)[C@H](C(C)C)N(C)C(=O)[C@H](C)N(C)C(=O)[C@H](C(C)C)N(C)C(=O)[C@H](C(C)C)N(C)C(=O)[C@@H](NC=O)C(C)C (some centres unmarked) [Compound P4, shagamide B] (For-V[NMeV][NMeV][NMeA][NMeV][NMeξIle][NMeI]-NHMe) .
Result: > 10 µM
